B1: TPR 5TU (parent)
chain: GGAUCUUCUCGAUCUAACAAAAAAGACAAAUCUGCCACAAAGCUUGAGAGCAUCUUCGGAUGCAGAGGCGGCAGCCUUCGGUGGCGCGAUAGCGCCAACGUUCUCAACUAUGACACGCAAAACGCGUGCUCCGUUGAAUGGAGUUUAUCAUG

- Variants of: B1
- TEST DETAILS: polymerase ribozyme fitness, log enrichment relative to wild type (log ratio); higher = more active; in vitro selection for triplet polymerase activity
Variants at the floor of the assay were thinned out.
MEASURE: polymerase ribozyme fitness (log ratio)

* C36U U145A G152A | -3
* C57A C105U | 1.29
* A39C C51U C105U C118U | -3.78
* C116U G141A | -1.01
* A21G C96G | 0.474
* A30G G92U A98U | -3.79
* A16C A49U C85A G126U U139G | -3.47
* U53A C93A | -3.27
* G80A G128U | -3.18
* A97U C116U | -0.695
* G50C C125U | -3.89
* G94U A150U | -0.849
* C72U G92U U135A G143A | -3.54
